Molecular target: Calmodulin-1 (Homo sapiens)
Assay: CALM1 binders on microarrays, EGTA buffer, profiling panel, biochemical, small-molecule microarray, Cy5-labelled CALM1 (AID 1111);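 further: labelled calmodulin applied in Tris saline Tween buffer holding calcium plus EGTA and DTT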
Conditions: Cy5-CALM1 binding fluorescence, higher = more signal
We begin with a simple list: items and their reported composite z-score.
Would you mind answering with just the numeric figure?

Lookup: Item C=CCOC(=O)[C@@H]1[C@H]2C(=O)O[C@H](c3ccccc3)[C@H](c3ccccc3)N2[C@H](c2ccc(OCCOC(=O)[C@H]3C[C@H]4C(=O)N[C@@H](CCCCN(C)C)C(=O)N4[C@H]3c3cccc(OCCO)c3)cc2)[C@@]12C(=O)Nc1ccc(I)cc12 has what recorded composite z-score?
Found: 0.993

Lookup: Item CCCC[C@@H]1C[C@H]1[C@@H](NC(=O)c1ccccc1)c1ccc(Cl)cc1 has what recorded composite z-score?
Found: 0.014

Lookup: Item CCCC=C(CCC)[C@@H](NP(=O)(c1ccccc1)c1ccccc1)c1ccc(C(F)(F)F)cc1 has what recorded composite z-score?
Found: 0.0848

Values were extracted from PubChem BioAssay.
